TGT: Glucagon-like peptide 1 receptor (Homo sapiens) (UniProt P43220)
Sequence (P43220 whole entry, looked up): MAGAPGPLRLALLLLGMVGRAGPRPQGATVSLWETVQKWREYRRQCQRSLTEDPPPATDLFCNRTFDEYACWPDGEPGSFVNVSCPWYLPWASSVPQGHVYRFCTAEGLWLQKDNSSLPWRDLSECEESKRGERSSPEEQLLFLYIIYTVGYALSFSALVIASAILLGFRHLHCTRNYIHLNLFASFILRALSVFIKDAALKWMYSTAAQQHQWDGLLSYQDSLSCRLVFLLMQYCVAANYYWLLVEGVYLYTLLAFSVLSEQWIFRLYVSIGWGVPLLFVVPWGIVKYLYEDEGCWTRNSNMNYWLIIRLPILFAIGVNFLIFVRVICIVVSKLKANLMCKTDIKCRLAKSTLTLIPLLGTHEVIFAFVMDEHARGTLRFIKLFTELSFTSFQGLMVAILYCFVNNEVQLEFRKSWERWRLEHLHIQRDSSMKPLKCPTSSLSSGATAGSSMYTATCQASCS
MEASUREMENT DESCRIPTION: qHTS of GLP-1 Receptor Inverse Agonists (Inhibition Mode); also: nearly all actives have a fitted effect of over 55% in size
PARTICULARS: HEK293 GLP-1R CRE-luciferase, luminescence, 24 h, GLP-1R form is constitutively active; series mostly up to 38.3 µM
About 6,400 (1.6%) of roughly 410,000 compounds were called active. Not shown: some 20% with an inconclusive outcome. Calls follow the shape of the dose curve; as a rule, active = well fitted inhibition curve with a large enough effect; inconclusive = small, poorly fitted or top-dose-only effect; inactive = no such curve, though single readings can be large or run the other way. Only a selection was taken, and actives are over-represented in it overall.
# valid calls are active, inactive; nothing else

| COMPOUND | ASSIGNED LABEL |
| --- | --- |
| CC(C)c1c(C(=O)N/N=C/c2ccccc2C(=O)O)nnn1-c1nonc1N | inactive |
| CC1C(=O)N(Cc2cn(Cc3ccco3)nn2)CCS(=O)(=O)N1Cc1ccc(-c2cccc(CO)c2)cc1 (stereo not given) | inactive |
| CC(=O)Nc1cccc(/C(C)=N/NC(=O)c2c(-c3ccccc3Cl)noc2C)c1 | inactive |
| Cc1onc(-c2ccccc2Cl)c1C(=O)NCCn1ccc2ccccc21 | active |
| Nc1nonc1-n1nnc(C(=O)N/N=C/C2CCCCC2)c1-c1ccccc1 | inactive |

Which result was noted for this compound in the test: COc1ccc(-c2ccc(CN3C(C(C)C)C(=O)N(Cc4cn(CC5CCCCC5)nn4)CCS3(=O)=O)cc2)cn1 (stereo not given)
inactive

Write down the call the test reported for this compound. Item: COc1cc(C=C(OC(C)=O)c2ccc3c(c2)OCO3)cc(OC)c1OC
inactive

# fetch the recorded call for O=C(COC(=O)CCc1c[nH]c2ccccc12)Nc1cccc(Cl)c1 here
inactive

For CCOC(=O)c1cnn2c(SC)ncnc12 , which call appears in the assay record?
inactive

What outcome does the record of this test show for Nc1nc(CSc2nnnn2-c2ccccc2)nc(Nc2ccccc2)n1 ?
inactive

* * *

TGT: Glucagon-like peptide 1 receptor (Homo sapiens) (UniProt P43220)
MEASUREMENT DESCRIPTION: qHTS of GLP-1 Receptor Inverse Agonists (Inhibition Mode); also: nearly all actives have a fitted effect of over 55% in size
PARTICULARS: HEK293 GLP-1R CRE-luciferase, luminescence, 24 h, GLP-1R form is constitutively active; series mostly up to 38.3 µM
In all, about 410,000 compounds went through this assay and about 6,400 (1.6%) were called active. About 20% were inconclusive and are not listed. Calls come from the whole dose curve; as a rule, active = well fitted inhibition curve with a large enough effect; inconclusive = small, poorly fitted or top-dose-only effect; inactive = no such curve, though single readings can be large or run the other way. What follows is part of a selection rich in actives, with near analogues and random picks from the rest.
Choose the fitting class; nothing outside t for active, f for inactive is accepted.

Some solved cases for reference:
| COMPOUND | ASSIGNED LABEL |
| --- | --- |
| COC(=O)c1sccc1S(=O)(=O)N(CC(=O)Nc1ccc(C)c(F)c1)c1ccc(C)c(C)c1 | t |
| CCOc1ccc(Cl)cc1-c1cc(C(=O)NCc2cccs2)[nH]n1 | f |
| Cc1ccc(C(=O)Nc2c(-c3ccccc3)[nH][nH]c2=O)cc1 | f |
| Cc1ccc(-c2cn3cc([N+](=O)[O-])ccc3n2)cc1 | t |
| CCOC(=O)CSc1nccc(N(C)C)c1C#N | f |
| COc1ccc(CSc2nc(N3CCOCC3)c3c(c2C#N)CC(C)(C)OC3)cc1 | f |
| OCCN1CCN(c2nnc(-c3ccccc3)c3ccccc23)CC1 | f |
| O=C(NCc1ccc2c(c1)CCN2C(=O)c1ccccc1)c1ccccc1 | f |

Per the assay record, what outcome was assigned to Cc1ccc(-n2cc3ccc([N+](=O)[O-])cc3n2)cc1 ?
f

What classification did CCCCN1C(=O)C(CC(=O)NCc2cccs2)CC(C(=O)N2CCCCCC2)=C1C (configuration not stated) end up with in this test?
f

How was O=C(CCc1ccccc1)NCc1ccc2c(c1)CCN2C(=O)c1ccccc1 classified in this test?
f

For CCOC(=O)C1CCCN(C(=O)c2cc(-c3cccs3)oc2C)CC1 (configuration not stated) , what call appears in the results of this test?
f

Would you mind telling me which call this test gave CC(Nc1nc(N2CCN(CCO)CC2)nc2ccccc12)c1ccccc1 (configuration not stated) ?
t

Please share the test call associated with O=C1c2ccccc2C(=O)c2c1cccc2N1CCN(CCO)CC1 .
f

Per the assay record, what outcome was assigned to CC1(C(=O)NS(=O)(=O)Cc2cccc(Cl)c2)CCN1C(=O)Cc1ccccc1 (configuration not stated) ?
f

Query: recorded result category for CNS(=O)(=O)c1cccc(C(=O)NCC2CCCCC2)c1 in this test
f

What outcome does the record of this test show for COc1ccc(N(CC(=O)Nc2ccc(F)c(F)c2)S(=O)(=O)c2c(C)[nH]c(=O)[nH]c2=O)cc1 ?
f

Returns: the outcome recorded for O=C(Cn1c(=O)nc(-c2ccccc2)c2cc(Cl)ccc21)NCc1ccc(Cl)cc1 in this assay.
f

// return assay outcome for CC(C)c1ccc2c(c1)c(SC(C)(C)C)c(CC(C)(C)C(=O)O)n2Cc1ccc(Cl)cc1
t

Short answer needed: outcome of this test for CC1(C(=O)NCc2ccccc2)CN(S(C)(=O)=O)CC(=O)N1CC(F)(F)F (configuration not stated) ?
f

Kindly provide the recorded test outcome for the following compound: c1cc(-c2ccc3[nH]ccc3c2)n2ccnc2c1
f

Dear colleague, could you share the recorded outcome for O=C(NCc1ccc2c(c1)CCN2C(=O)c1ccccc1)Nc1cc(F)ccc1F when you have a moment?
t

* * *

TGT: Glucagon-like peptide 1 receptor (Homo sapiens) (UniProt P43220)
MEASUREMENT DESCRIPTION: qHTS of GLP-1 Receptor Inverse Agonists (Inhibition Mode); also: nearly all actives have a fitted effect of over 55% in size
PARTICULARS: HEK293 GLP-1R CRE-luciferase, luminescence, 24 h, GLP-1R form is constitutively active; series mostly up to 38.3 µM
In all, about 410,000 compounds went through this assay and about 6,400 (1.6%) were called active. Roughly 20% stayed inconclusive and do not appear here. The call rests on the fitted dose curve; in most records, active means well fitted inhibition curve with a large enough effect; inconclusive means small, poorly fitted or top-dose-only effect; inactive means no such curve, though single readings can be large or run the other way. The entries come from a sample that favours actives as a whole.
Please answer using one outcome listed in Y (active), N (inactive)

| COMPOUND | ASSIGNED LABEL |
| --- | --- |
| CCCCc1ccc(S(=O)(=O)NC(=O)C2(C)CCN2C(=O)c2ccccc2)cc1 (stereo not drawn) | N |
| OC[C@@H]1CN(Cc2ccncc2)C[C@H](n2cnc3c(N4CCN(c5ccccc5)CC4)ncnc32)O1 | N |
| COc1ccc(S(=O)(=O)N2CCC(C(=O)NCCC(=O)NCCc3cccc(F)c3)CC2)cc1 | N |
| Cc1c(C(=O)NCc2ccc(C#N)cc2)sc(=O)n1Cc1ccc(C(=O)N(C)C)cc1 | N |
| Cc1cc(C(=O)N2CCCC2(C)C(=O)O)c(C)o1 (stereo not drawn) | N |
| c1ccc(-c2ccc(OCCN3CCOCC3)cc2)cc1 | N |

Test call for this compound, please: Cc1ccc(S(=O)(=O)N[C@H](CO)C(C)C)cc1
N

What classification did c1ccc2cc3c(NCCN4CCOCC4)ccnc3cc2c1 end up with in this test?
Y

* * *

TGT: Glucagon-like peptide 1 receptor (Homo sapiens)
MEASUREMENT DESCRIPTION: qHTS of GLP-1 Receptor Inverse Agonists (Inhibition Mode); also: nearly all actives have a fitted effect of over 55% in size
PARTICULARS: HEK293 GLP-1R CRE-luciferase, luminescence, 24 h, GLP-1R form is constitutively active; series mostly up to 38.3 µM
Screen size: about 410,000 compounds; about 6,400 (1.6%) were called active. About 20% were inconclusive and are not listed. Calls come from the whole dose curve; as a rule, active = well fitted inhibition curve with a large enough effect; inconclusive = small, poorly fitted or top-dose-only effect; inactive = no such curve, though single readings can be large or run the other way. This excerpt belongs to a sample that is enriched for actives.
Write down one outcome, taken from yes (1) (active), no (0) (inactive)

Study these solved cases before continuing.
| MOLECULE | ASSIGNED LABEL |
| --- | --- |
| N#Cc1ccc(Oc2cc(C(F)(F)F)nc(-c3ccccn3)n2)cc1 | no (0) |
| COc1ccc(S(=O)(=O)N(C)C[C@H]2OCc3cnnn3CCCC(=O)N([C@H](C)CO)C[C@H]2C)cc1 | no (0) |
| CCCCCCNC(=O)O[C@]12C[C@@H](C(=O)OC)[C@@H](C(=O)OC)C[C@@]1(O)CN(S(=O)(=O)c1ccc(C)cc1)C2 | no (0) |
| CCCCNC(=S)N/N=C1\CCCCc2ccccc21 | yes (1) |
| CCCNC(=O)c1cc(C2CCCCN2C(=O)OC)on1 (stereo unspecified) | no (0) |

For CCc1noc(C)c1C(=O)Oc1ccc(N(C)S(=O)(=O)c2ccc(C)c(C)c2)cc1 , which call appears in the assay record?
yes (1)

Please indicate how the test categorized Cc1ccc(NC(=S)N/N=C2/CCCc3c(C)cc(C)cc32)cc1 .
no (0)

Call for entry CN(c1ccc(OCC(=O)O)cc1)S(=O)(=O)c1ccc2ccccc2c1 :
no (0)

Which result was noted for this molecule in the test: O=C(Nc1nnc([C@H]2C[C@H](O)[C@@H](CO)O2)s1)c1cccc(Cl)c1
no (0)

Write down the call the test reported for this molecule. Item: O=C(NCCC1=CCCCC1)C1CCN(Cc2cnn(-c3ccccc3)c2-n2cccc2)CC1
yes (1)

GET /call?item= Cc1ccc(S(=O)(=O)N[C@H]2CCC[C@@H]2O)cc1 returns the recorded outcome of this test.
no (0)
